Molecular target: bovine cardiac myofibrils (full-length cardiac myosin ATPase in the native sarcomere) (Bos taurus (Bovine), UniProt Q9BE39)
Sequence (Q9BE39 whole entry): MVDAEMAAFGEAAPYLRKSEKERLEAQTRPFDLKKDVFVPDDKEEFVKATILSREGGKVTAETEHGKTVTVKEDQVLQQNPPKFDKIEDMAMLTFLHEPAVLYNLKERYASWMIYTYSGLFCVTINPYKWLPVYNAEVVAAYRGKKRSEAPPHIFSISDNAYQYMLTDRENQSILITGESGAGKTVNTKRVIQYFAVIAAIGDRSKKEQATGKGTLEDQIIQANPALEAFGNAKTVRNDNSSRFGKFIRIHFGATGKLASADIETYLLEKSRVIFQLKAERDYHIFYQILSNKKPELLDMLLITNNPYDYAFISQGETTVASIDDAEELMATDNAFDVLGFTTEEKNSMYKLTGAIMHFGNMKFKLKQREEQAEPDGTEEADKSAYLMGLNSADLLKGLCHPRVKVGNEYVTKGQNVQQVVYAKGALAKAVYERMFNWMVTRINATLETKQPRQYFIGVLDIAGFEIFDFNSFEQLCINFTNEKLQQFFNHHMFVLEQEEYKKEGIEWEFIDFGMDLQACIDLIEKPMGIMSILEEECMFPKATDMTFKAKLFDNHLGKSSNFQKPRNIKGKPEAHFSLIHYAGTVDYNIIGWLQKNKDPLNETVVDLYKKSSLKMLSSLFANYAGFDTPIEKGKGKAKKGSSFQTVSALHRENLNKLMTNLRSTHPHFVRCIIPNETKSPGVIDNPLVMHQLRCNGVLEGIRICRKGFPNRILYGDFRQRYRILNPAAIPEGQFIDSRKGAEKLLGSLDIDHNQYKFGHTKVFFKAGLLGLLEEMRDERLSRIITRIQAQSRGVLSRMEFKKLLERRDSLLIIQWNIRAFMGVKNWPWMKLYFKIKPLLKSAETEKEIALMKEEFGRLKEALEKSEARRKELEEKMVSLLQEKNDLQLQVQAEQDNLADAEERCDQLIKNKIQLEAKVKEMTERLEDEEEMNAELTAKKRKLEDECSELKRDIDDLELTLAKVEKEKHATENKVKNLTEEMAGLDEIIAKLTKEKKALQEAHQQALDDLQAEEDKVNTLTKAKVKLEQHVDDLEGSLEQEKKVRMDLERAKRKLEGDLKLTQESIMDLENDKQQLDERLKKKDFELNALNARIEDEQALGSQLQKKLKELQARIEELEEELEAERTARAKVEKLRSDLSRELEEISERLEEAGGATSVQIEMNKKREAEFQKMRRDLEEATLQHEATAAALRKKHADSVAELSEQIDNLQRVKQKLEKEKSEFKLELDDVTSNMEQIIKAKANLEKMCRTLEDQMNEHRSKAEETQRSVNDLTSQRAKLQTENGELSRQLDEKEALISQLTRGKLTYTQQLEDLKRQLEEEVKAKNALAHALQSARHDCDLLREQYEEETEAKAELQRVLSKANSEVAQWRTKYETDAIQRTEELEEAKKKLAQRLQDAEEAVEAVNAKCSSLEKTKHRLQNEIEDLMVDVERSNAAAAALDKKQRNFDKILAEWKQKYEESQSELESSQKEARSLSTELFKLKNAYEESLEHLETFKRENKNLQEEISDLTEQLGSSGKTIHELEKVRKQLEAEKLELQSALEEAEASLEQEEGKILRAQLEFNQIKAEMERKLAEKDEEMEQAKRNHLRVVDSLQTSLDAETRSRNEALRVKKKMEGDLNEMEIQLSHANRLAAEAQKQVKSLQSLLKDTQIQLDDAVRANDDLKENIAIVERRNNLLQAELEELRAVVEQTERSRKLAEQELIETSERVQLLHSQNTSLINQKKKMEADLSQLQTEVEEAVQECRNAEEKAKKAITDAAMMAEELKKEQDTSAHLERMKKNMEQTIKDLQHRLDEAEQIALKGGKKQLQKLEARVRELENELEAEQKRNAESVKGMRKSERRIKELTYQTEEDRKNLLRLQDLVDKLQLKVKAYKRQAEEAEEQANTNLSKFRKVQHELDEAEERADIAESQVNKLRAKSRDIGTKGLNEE
Sequence (P85100 whole entry partner): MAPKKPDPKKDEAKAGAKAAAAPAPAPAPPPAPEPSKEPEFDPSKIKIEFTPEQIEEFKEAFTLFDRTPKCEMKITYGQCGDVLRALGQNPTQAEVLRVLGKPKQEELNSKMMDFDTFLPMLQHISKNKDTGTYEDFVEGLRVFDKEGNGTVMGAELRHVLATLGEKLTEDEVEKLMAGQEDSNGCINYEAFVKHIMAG
Sequence (Q3SZE5 whole entry partner): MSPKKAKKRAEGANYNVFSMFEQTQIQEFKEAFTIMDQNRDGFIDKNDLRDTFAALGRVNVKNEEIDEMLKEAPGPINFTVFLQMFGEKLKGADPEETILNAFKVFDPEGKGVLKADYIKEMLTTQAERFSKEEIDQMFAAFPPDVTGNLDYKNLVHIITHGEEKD
Assay: Skinned bovine cardiac myofibril ATPase assay (PK/LDH-coupled)
Format: biochemical
Conditions: Ca2+ activating to 75% of maximal rate, concentration giving 15% inhibition
Think of 2000 nM as a floor: if CDMF75 IC15 stands on it or above, it is 1.0; beneath it, 0.0.

Exercise: Exam item: decide whether the reported CDMF75 IC15 for COCCn1cc(C(=O)N[C@@H]2CCc3cc(-c4noc(C(F)F)n4)ccc32)cn1 [Compound 529] is at least 2000 nM.
Solution: 0.0

Exercise: Likewise for Cn1nccc1C(=O)N[C@@H]1CCc2cc(-c3noc(C4CC4(C)C)n3)ccc21 (stereo partly shown) [Compound 460] ?
Solution: 0.0

Exercise: Likewise for CC(=O)N[C@@H]1CCc2cc(-c3noc(C(F)F)n3)ccc21 [Compound 286] ?
Solution: 1.0

Exercise: Likewise for [2H]C([2H])([2H])c1noc(-c2ccc3c(c2)CC[C@H]3NC(=O)c2cnn(C)c2)n1 [Compound 274] ?
Solution: 1.0

Exercise: Likewise for O=C(NC1CCc2cc(-c3noc(C(F)F)n3)ccc21)c1cnc(Cl)s1 (stereo not shown) [Compound 8] ?
Solution: 0.0

More entries:
Exercise: Exam item: decide whether the reported CDMF75 IC15 for Cc1noc(-c2ccc3c(c2)CC[C@H]3NC(=O)c2cnn(CCO)c2C)n1 [Compound 704] is at least 2000 nM.
Solution: 1.0

Exercise: Likewise for COCc1nc(-c2ccc3c(c2)CC[C@H]3NC(=O)c2cc(C)nn2C)no1 [Compound 179] ?
Solution: 0.0

Exercise: Likewise for O=C(N[C@@H]1COc2cc(-c3noc(C(F)F)n3)ccc21)C(F)F [Compound 441] ?
Solution: 1.0

Exercise: Likewise for CCc1nc(-c2cc3c(cc2F)[C@H](NC(=O)c2cnn(C)c2)CC3)no1 [Compound 699] ?
Solution: 0.0
